Cited source for all entries: PubChem BioAssay (EPA / NIEHS)

- method-notes: TOX21_p53_BLA_p4_viability: Viability Assessment in the Tox21 HCT-116 p53 Agonism Beta-lactamase Assay, Phase 4 (AID 2283597);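 note: hits lower the luminescence signal meaning cytotoxicity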
Records with an inconclusive call do not appear. Activity calls are given as the source filed them. Rule for the calls: active = hit-call score of the fitted dose curve at least 0.9, where 1 is the maximum; inconclusive = response in the unintended direction; inactive = score below 0.9. *1 amine or outer side, *2 acyl side, *3 side chain or, on linkers, in order; H or OH if unused. Where a SMILES comes first, the peptide text is derived from it. Bridges are numbered along the chain shown (N, C = ends). [ ]: non-standard residue; d: D form. The star is where a group is joined. X3 = NC1=N[C@@H]([C@H](N[*:1])C(=O)[*:2])C[C@H](O)N1; ΔAla(Z-3-ureido) = NC(=O)N/C=C(\N)C(=O)O; β3hOrn = NCCC[C@H](N)CC(=O)*; Dap = NC[C@H](N)C(=O)O
Classes used: active, inactive

[
  {
    "molecule": "Nc1ccc(F)cc1F",
    "category-label": "inactive"
  },
  {
    "molecule": "CCCCCCCCOCCCN",
    "category-label": "inactive"
  },
  {
    "molecule": "CN(C)c1nc(N(C)C)nc(N(C)C)n1",
    "category-label": "inactive"
  },
  {
    "molecule": "CC(=O)c1ccc2c(c1)N(CCCN(C)C)c1ccccc1S2",
    "category-label": "inactive"
  },
  {
    "molecule": "Nc1ccccc1O",
    "category-label": "active"
  },
  {
    "molecule": "CCN(CC)Cc1cc(Nc2ccnc3cc(Cl)ccc23)ccc1O",
    "category-label": "inactive"
  },
  {
    "molecule": "CC[C@@H](C(=O)[C@@H](C)[C@@H](O)[C@H](C)CCc1ccc(C)c(O)c1C(=O)O)[C@H]1O[C@](CC)([C@H]2CC[C@](O)(CC)[C@H](C)O2)C[C@@H]1C",
    "category-label": "active"
  },
  {
    "molecule": "CCCC1([C@H](O)C/C=C/[C@H]2[C@H](O)CC(=O)[C@@H]2CCCCCCC(=O)OC)CCC1",
    "category-label": "active"
  },
  {
    "molecule": "CC(=O)Nc1cccc(C)c1",
    "category-label": "inactive"
  },
  {
    "molecule": "CC1(C)CCC(C)(C)c2cc(NC(=O)c3ccc(C(=O)O)cc3)ccc21",
    "category-label": "active"
  },
  {
    "molecule": "CC1(C)N=C(N)N=C(N)N1c1ccc(Cl)cc1",
    "category-label": "active"
  },
  {
    "molecule": "COc1ccc(C(=O)c2ccc(OC)cc2O)c(O)c1",
    "category-label": "inactive"
  },
  {
    "molecule": "CCOC(=O)C=CC(=O)O",
    "category-label": "inactive"
  },
  {
    "molecule": "CC(C)(S)C(=O)N[C@@H](CS)C(=O)O",
    "category-label": "inactive"
  },
  {
    "molecule": "CN(C)c1ccc(/C=C/c2ccc([N+](=O)[O-])cc2)cc1",
    "category-label": "inactive"
  },
  {
    "molecule": "CC[C@H]1OC(=O)[C@H](C)[C@@H](O[C@H]2C[C@@](C)(OC)[C@@H](O)[C@H](C)O2)[C@H](C)[C@@H](O[C@@H]2O[C@H](C)C[C@H](N(C)C)[C@H]2O)[C@](C)(OC)C[C@@H](C)C(=O)[C@H](C)[C@@H](O)[C@]1(C)O",
    "category-label": "inactive"
  },
  {
    "molecule": "CCc1cccc2c3c([nH]c12)C(CC)(CC(=O)O)OCC3 (configuration not stated)",
    "category-label": "inactive"
  },
  {
    "molecule": "O=C(O)P(=O)(O)O",
    "category-label": "inactive"
  },
  {
    "molecule": "O=[N+]([O-])c1ccc(NCCO)c(OCCO)c1",
    "category-label": "inactive"
  },
  {
    "molecule": "CCCCN1CCCC[C@H]1C(=O)Nc1c(C)cccc1C",
    "category-label": "inactive"
  },
  {
    "molecule": "COc1ccc(CN2CCN(C(c3ccc(F)cc3)c3ccc(F)cc3)CC2)c(OC)c1OC",
    "category-label": "active"
  },
  {
    "molecule": "O=P(O)(OCc1ccccc1)OCc1ccccc1",
    "category-label": "inactive"
  },
  {
    "molecule": "O=C(O)c1ccccc1Nc1cc(Cl)ccc1C(=O)O",
    "category-label": "inactive"
  },
  {
    "molecule": "CCOC(=O)NCCC[Si](OCC)(OCC)OCC",
    "category-label": "inactive"
  },
  {
    "molecule": "CCCC(=O)OC[C@@H](OC(=O)CCC)[C@@H](OC(=O)CCC)[C@H](Cn1c2nc(=O)[nH]c(=O)c-2nc2cc(C)c(C)cc21)OC(=O)CCC",
    "category-label": "inactive"
  },
  {
    "molecule": "CC(C)N=C(N)/N=C(\\N)Nc1ccc(Cl)cc1",
    "category-label": "inactive"
  },
  {
    "molecule": "c1ccc(SSc2ccccc2)cc1",
    "category-label": "inactive"
  },
  {
    "molecule": "CC(C)NCC(O)c1ccc2ccccc2c1 (configuration not stated)",
    "category-label": "inactive"
  },
  {
    "molecule": "Brc1ccccc1-c1ccccc1",
    "category-label": "inactive"
  },
  {
    "molecule": "C=C1CC[C@H](O)C/C1=C/C=C1\\CCC[C@]2(C)[C@@H]([C@H](C)CC[C@@H](O)C(C)(C)O)CC[C@@H]12",
    "category-label": "active"
  },
  {
    "molecule": "C=Cc1ccccc1",
    "category-label": "inactive"
  },
  {
    "molecule": "CN1[C@@H]2CC[C@H]1CC(OC(c1ccccc1)c1ccccc1)C2 (some centres not stated)",
    "category-label": "inactive"
  },
  {
    "molecule": "Cn1ccc2cc3c(cc21)CCN3C(=O)Nc1cccnc1",
    "category-label": "inactive"
  },
  {
    "molecule": "C[C@@H]1[C@H](O)[C@@H](C)/C=C/C=C/C=C/C=C/C=C/C=C/C=C/[C@H](O[C@@H]2O[C@H](C)[C@@H](O)[C@H](N)[C@@H]2O)C[C@@H]2O[C@](O)(C[C@@H](O)C[C@@H](O)[C@H](O)CC[C@@H](O)C[C@@H](O)CC(=O)O[C@H]1C)C[C@H](O)[C@H]2C(=O)O",
    "category-label": "inactive"
  },
  {
    "molecule": "NC(=S)N=Nc1ccc(NN=C(N)N)cc1",
    "category-label": "inactive"
  },
  {
    "molecule": "COc1cc2c(cc1OC)C(=O)C(CC1CCN(Cc3ccccc3)CC1)C2 (configuration not stated)",
    "category-label": "inactive"
  },
  {
    "molecule": "CC1C(=O)CC2C3(C)CCC2(C(C)C(=O)O)C(=O)C13 (configuration not stated)",
    "category-label": "inactive"
  },
  {
    "molecule": "CCc1cccc(CC)c1NC(=O)CN(CC(=O)O)CC(=O)O",
    "category-label": "inactive"
  },
  {
    "molecule": "CC/C=C\\C/C=C\\C/C=C\\C/C=C\\C/C=C\\CCCC(=O)O",
    "category-label": "inactive"
  },
  {
    "molecule": "O=C1c2cccc(O)c2C(=O)c2c(O)cccc21",
    "category-label": "inactive"
  },
  {
    "molecule": "COc1ccc(N)c(OC)c1",
    "category-label": "inactive"
  },
  {
    "molecule": "NCCC[C@H](N)CC(=O)N[C@H]1CNC(=O)[C@H]([C@H]2C[C@H](O)NC(N)=N2)NC(=O)/C(=C/NC(N)=O)NC(=O)[C@H](CO)NC(=O)[C@H](CO)NC1=O (β3hOrn-[Dap]SS[ΔAla(Z-3-ureido)][X3]; lactam 1-C)",
    "category-label": "inactive"
  }
]
